# tested_system: T1, 100 aa-long synthetic MUC1 peptide (…)5
# T1 construct: also called 100-mer; vaccine 100-mer peptide
# assay_overview: ELISA titration on coated 100-mer peptide, EC50 approximated
outcome_measure: EC50 (µg/mL)
Field: numeric (µg/mL). Do not append units.

Exam item: Tell us which EC50 value is on record for M7 (antibody, human IgG1, kappa, V domains shown, Human IgG) VH: EVQLVESGGGLVQPGGSLRLSCAASGFTVSSNYMSWVRQAPGKGLEWVSVIYSGGSTYYADSVKGRFTISRDNSKNTLYLQMNSLRAEDTAVYYCARGSTNTYYYDSSGHPWGQGTMVTVSS VL: DIVMTQSPLSLPATPGEPASISCRSSQSLLHSNGYTYLDWYLQKPGQSPQVLIYLASNRASGVPDRFSGSGSGTNFTLKISRVEAEDVGLFYCMQALQTPQTFGQGTKLEIKR
Marked response: 0.011

Exam item: Tell us which EC50 value is on record for M3 (antibody, human IgG1, lambda, V domains shown, Human IgG) VH: QLQLQESGPGLVKPSETLSLTCTVSGGSISSSSYYWGWIRQPPGKGLEWIGSIYYSGSTHYNPSLKSRVTISVDTSKNQFSLKLRSVTAADTAVYYCARGVVEVRGNHYYYYYMDVWGKGTTVTVSS VL: QSVLTQPPSVSGAPGQRVTISCTGSSSNIGAGYDVHWYQQLPGTAPKLLIYGNSYRPSGVPDRFSGSKSGTSASLAITGLQAEDEADYYCQSYDSSLSGSGVFGGGTKLTVLG
Marked response: 0.011

Exam item: Tell us which EC50 value is on record for M4 (antibody, human IgG1, lambda, V domains shown, Human IgG) VH: QLQLQESGPGLVKPSETLSLTCTVSGGSISSSSYYWGWIRQPPGKGLEWIGSIYYSGSTHYNPSLKRRVTISEDTSKNQFSLKLSSVTAADTAVYYCARGVVEVRGNHYYYYHMDAWGKGTTVTVSS VL: QSVLTQPPSVSGAPGQGVTISCTGSSSNIGAGYDVHWYQQLPGSAPKFFIYGSNNRPSGVPDRFSGSKSGTSASLAITGLQAEDEADYYCQSYDSSLSGSGVFGGGTKLTVLG
Marked response: 0.004
